protocol_details: Selectivity index, ratio of TC50 for African green monkey Vero cells to IC50 for HSV1 strain F VR 733 infected in African green monkey Vero cells
Assay type: toxicity
settings: read-out: Selectivity Index
measured_endpoint: selectivity ratio
Number only, no unit.

{"columns": ["smiles_entry", "measured_endpoint", "result_number"],
 "data": [
  ["Cc1ccc2c(c1C)C1=CC[C@@H]3[C@@]4(C)C[C@@H](O)[C@H](O)[C@@](C)(CO)[C@@H]4CC[C@@]3(C)[C@]1(C)CC2", "selectivity ratio", 4.3]
]}

As a next step, examine the compound that follows.
[ask] What does the data say about its selectivity ratio? Entry: CC1=C2C3=CC[C@@H]4[C@@]5(C)C[C@@H](O)[C@@H](O)[C@@](C)(CO)[C@@H]5CC[C@@]4(C)[C@]3(C)CC[C@@]23CC[C@]1(C)OO3
[reply] 3.6
